Target: FAP‐transfected HT‐1080‐FAP cells (Homo sapiens, UniProt Q12884)
Construct: expressed in transfected cells; host or cells: HT-1080 cells transfected with FAP (HT-1080-FAP)
Sequence (Q12884 whole entry): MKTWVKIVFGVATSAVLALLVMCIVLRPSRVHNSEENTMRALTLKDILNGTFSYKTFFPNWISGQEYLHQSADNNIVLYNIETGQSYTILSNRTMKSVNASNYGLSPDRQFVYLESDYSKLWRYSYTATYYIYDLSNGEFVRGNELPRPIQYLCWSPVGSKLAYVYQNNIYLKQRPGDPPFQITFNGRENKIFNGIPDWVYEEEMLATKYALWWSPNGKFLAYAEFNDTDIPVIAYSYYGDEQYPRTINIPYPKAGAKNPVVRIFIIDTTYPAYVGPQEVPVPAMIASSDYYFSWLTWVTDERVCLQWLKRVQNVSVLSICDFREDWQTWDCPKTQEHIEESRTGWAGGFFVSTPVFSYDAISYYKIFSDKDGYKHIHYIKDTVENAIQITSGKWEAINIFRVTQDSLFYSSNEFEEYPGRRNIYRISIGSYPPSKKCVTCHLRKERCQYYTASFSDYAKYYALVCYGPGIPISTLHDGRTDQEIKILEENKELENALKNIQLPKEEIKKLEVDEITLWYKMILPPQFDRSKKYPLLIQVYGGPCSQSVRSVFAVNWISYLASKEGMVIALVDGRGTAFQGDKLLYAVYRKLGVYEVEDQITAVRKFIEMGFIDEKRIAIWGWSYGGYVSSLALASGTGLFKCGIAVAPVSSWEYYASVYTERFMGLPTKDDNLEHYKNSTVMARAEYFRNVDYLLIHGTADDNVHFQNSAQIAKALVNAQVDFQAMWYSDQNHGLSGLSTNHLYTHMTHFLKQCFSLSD
Experiment: In vitro binding/uptake on FAP-transfected HT-1080-FAP cells
Type: cell-based
Conditions: HT1080-FAP cells, 60 min incubation
measurementLabel: uptake 60 min (%AD/10^6 cells)

molecule | uptake 60 min [%AD/10^6 cells]
N#C[C@@H]1CC(F)(F)CN1C(=O)CNC(=O)c1ccnc2ccc(OCCCN3CCN(C(=O)CN4CCN(CC(=O)O)CCN(CC(=O)O)CC4)CC3)cc12 [FAPI-42] | 61.2

P: CN(CCCN1CCN(C(=O)c2ccc([N+](C)(C)C)nc2)CC1)c1ccc2nccc(C(=O)NCC(=O)N3CC(F)(F)C[C@H]3C#N)c2c1 [FAPI-72]
Q: C[N+](C)(C)c1ccc(C(=O)N2CCN(CCCOc3ccc4nccc(C(=O)NCC(=O)N5CC(F)(F)C[C@H]5C#N)c4c3)CC2)cn1 [FAPI-73]
R: N#C[C@@H]1CC(F)(F)CN1C(=O)CNC(=O)c1ccnc2ccc(OCCCN3CCN(C(=O)[C@H](CC(C(=O)O)C(=O)O)NC(=O)CN4CCN(CC(=O)O)CCN(CC(=O)O)CC4)CC3)cc12 [FAPI-75]
Task: Given 3 molecules, produce a descending ranking by uptake 60 min. Response field: labels, in requested order.
Result: R, Q, P
(R: 74.0 %AD/10^6 cells, Q: 39.2 %AD/10^6 cells, P: 23.6 %AD/10^6 cells)

A: N#C[C@@H]1CCCN1C(=O)CNC(=O)c1ccnc2ccc(OCCCN3CCN(C(=O)CN4CCN(CC(=O)O)CCN(CC(=O)O)CC4)CC3)cc12 [FAPI-74]
B: CN(CCCN1CCN(C(=O)CN2CCN(CC(=O)O)CCN(CC(=O)O)CC2)CC1)c1ccc2nccc(C(=O)NCC(=O)N3CC(F)(F)C[C@H]3C#N)c2c1 [FAPI-52]
Task: So which one has the bigger uptake 60 min here, A or B ? Label of pick, please.
Result: B

----------
Test: Determination of logD values (1-octanol / PBS)
Format: physicochemical
Conditions: 1-octanol / phosphate buffered saline, pH 7.4; radiolabeled tracer detected by radioactivity in 1-octanol and phosphate buffered saline
measurementLabel: logD

The cases that follow already have their logD on record.
compound | logD
N#C[C@@H]1CC(F)(F)CN1C(=O)CNC(=O)c1ccnc2ccc(OCCCN3CCN(C(=O)CN4CCN(CC(=O)O)CCN(CC(=O)O)CC4)CC3)cc12 [FAPI-42] | -1.63
N#C[C@@H]1CCCN1C(=O)CNC(=O)c1ccnc2ccc(OCCCN3CCN(C(=O)CN4CCN(CC(=O)O)CCN(CC(=O)O)CC4)CC3)cc12 [FAPI-74] | -2.42

I: N#C[C@@H]1CC(F)(F)CN1C(=O)CNC(=O)c1ccnc2ccc(OCCCN3CCN(C(=O)[C@H](CC(C(=O)O)C(=O)O)NC(=O)CN4CCN(CC(=O)O)CCN(CC(=O)O)CC4)CC3)cc12 [FAPI-75]
II: CN(CCCN1CCN(C(=O)CN2CCN(CC(=O)O)CCN(CC(=O)O)CC2)CC1)c1ccc2nccc(C(=O)NCC(=O)N3CC(F)(F)C[C@H]3C#N)c2c1 [FAPI-52]
Task: Look at I and II . Which one has the lower recorded logD number? Give the label of your selection.
Result: I
